Target: biotinylated CD59 (Homo sapiens)
Construct: Recombinant soluble human CD59 with an additional C-terminal cysteine residue
Sequence (P13987 26-102 limits assumed): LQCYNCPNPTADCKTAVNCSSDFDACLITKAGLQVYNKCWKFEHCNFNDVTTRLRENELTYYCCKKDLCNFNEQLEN
Assay: mRNA-display cyclic peptide screen against CD59-biotin, NGS abundance after 6th selection round
Details: raw NGS counts of peptide sequence, sequencing sample Seq II, sheet R6 (6th selection round)
Measure name: Counts Seq II
Answer with the value's number alone.

Qu. Dear colleague, I am looking for the recorded Counts Seq II of the following substance: SAWGNRQIQYY
Ans. 3036

Qu. Query (substance): CFTQRIASGSK ; field requested: Counts Seq II
Ans. 9

Qu. So what does the record say about Counts Seq II for CFKHRLGTDSA ?
Ans. 37

Qu. Endpoint output: Counts Seq II of YIYWSFTSARG . Value?
Ans. 14

Qu. // lookup Counts Seq II for CLDKWGRLWS
Ans. 325

Qu. Requested read-out: Counts Seq II. Entry: CFAGRPTIDAV
Ans. 12

Qu. Report Counts Seq II for QPFWGCRTVAYS please.
Ans. 21

Qu. Please report the recorded Counts Seq II for VKYGNSNFVRG .
Ans. 283

Qu. Entry CFSRRLTAGAT has what Counts Seq II?
Ans. 15

Qu. Requested read-out: Counts Seq II. Entry: WILGSRWWTRS
Ans. 48

Qu. Quick check: Counts Seq II of CFAGRLTIGAV ?
Ans. 24

Qu. So what's the measured Counts Seq II for this one? WRDRLDQCVL
Ans. 9

Qu. Quick one: Counts Seq II of CFYTRIDAFST ?
Ans. 34

Qu. Fill in the blank: the reported Counts Seq II of LCYVKGSKNFT is ____.
Ans. 41

Qu. Which measured Counts Seq II value corresponds to WRDRFDQCVR ?
Ans. 23

Qu. Item under review: HCWVRGSRDYT . Reported Counts Seq II?
Ans. 20

Qu. Value lookup for Counts Seq II; key = TFAHRVGSCQST
Ans. 11

Qu. Fill in the blank: the reported Counts Seq II of CRGNRFYQLSFH is ____.
Ans. 80

Qu. Param item = SSYRELAHLPC ; retrieve measured Counts Seq II.
Ans. 20

Qu. Need Counts Seq II of SAWGNRQIQY+ , thanks.
Ans. 7

These measurements were taken from paper PMC12207370.
